system-tested: cAMP-dependent protein kinase (PKA) (Homo sapiens, UniProt P22694+P17612+P22612)
test: Inhibition of PKA (unknown origin)
Format: protein assay
Assign a class from recorded IC50; defined classes: class 1: < 2000 nM; class 2: ≥ 2000 nM and < 4000 nM; class 3: ≥ 4000 nM

molecule	class-label
O=C1NC(=O)C(c2cn(CCCN3CCOCC3)c3ccccc23)=C1c1c[nH]c2ccccc12	class 2
O=C1NC(=O)C(c2cn(CCCN3CCNCC3)c3ccccc23)=C1c1c[nH]c2ccccc12	class 3

Consider CN1CCCC(Cn2cc(C3=C(c4c[nH]c5ccccc45)C(=O)NC3=O)c3ccccc32)C1 (centres undefined) . To which IC50 class does it belong?
class 2

Consider `NCCCn1cc(C2=C(c3c[nH]c4ccccc34)C(=O)NC2=O)c2ccccc21` . To which IC50 class does it belong?
class 1

Consider `COCCn1cc(C2=C(c3cn(CCCN(C)C)c4ccccc34)C(=O)NC2=O)c2ccccc21` . To which IC50 class does it belong?
class 3

Consider `COCCn1cc(C2=C(c3c[nH]c4ccccc34)C(=O)NC2=O)c2ccccc21` . To which IC50 class does it belong?
class 3

Consider `CN(C)CCCn1cc(C2=C(c3c[nH]c4ccccc34)C(=O)NC2)c2ccccc21` . To which IC50 class does it belong?
class 3

Consider O=C1NC(=O)C(c2cn(CCC3CCCCN3)c3ccccc23)=C1c1c[nH]c2ccccc12 (centres undefined) . To which IC50 class does it belong?
class 1

Consider `CN(C)CCCn1c2ccccc2c2c3c(c4c5ccccc5[nH]c4c21)C(=O)NC3=O` . To which IC50 class does it belong?
class 1
